Source of measurements: patent US8791102B2

target: human S1P1 receptors (Homo sapiens, UniProt P21453); experiment: S1P1R antagonist assay (fluorescent membrane potential dye, cAMP readout); conditions: HEK293 cells expressing human S1P1 receptors and CNG channel; 500 nM NECA; S1P1R agonist 10 nM; 90 minutes; read-out: EC50 or IC50 value
Sequence (P21453 whole entry): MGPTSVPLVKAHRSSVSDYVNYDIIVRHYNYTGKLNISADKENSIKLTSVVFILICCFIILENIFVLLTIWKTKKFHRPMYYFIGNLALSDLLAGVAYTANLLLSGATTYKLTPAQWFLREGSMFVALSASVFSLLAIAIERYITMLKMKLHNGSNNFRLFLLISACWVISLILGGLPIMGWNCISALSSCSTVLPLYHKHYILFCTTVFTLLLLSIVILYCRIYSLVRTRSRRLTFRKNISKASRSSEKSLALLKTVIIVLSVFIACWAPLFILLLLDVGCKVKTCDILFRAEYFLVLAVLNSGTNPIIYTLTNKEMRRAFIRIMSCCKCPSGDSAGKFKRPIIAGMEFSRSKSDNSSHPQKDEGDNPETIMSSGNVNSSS
property-measured: IC50

O=C(Nc1ccc(Oc2ccc(F)cc2)cc1)[C@@H]1C[C@@H](Cc2ccccc2)CN1C(=O)CN1CCSCC1 [Compound 83] = ≤ 300 nM
O=C(Nc1ccc(Oc2ccc(F)cc2)cc1)[C@@H]1C[C@@H](Cc2ccccc2)CN1C(=O)Cn1cncn1 [Compound 140] = ≤ 300 nM
O=C(Nc1ccc(Oc2ccc(F)cc2)cc1)[C@@H]1C[C@@H](Cc2cccc(F)c2)CN1C(=O)Cn1nccn1 [Compound 49] = ≤ 300 nM
O=C(Nc1ccc(Oc2ccc(F)cc2)cc1)[C@@H]1C[C@@H](NCc2ccccc2)CN1C(=O)Cn1cncn1 [Compound 179] = ≤ 300 nM
O=C(Nc1ccc(Oc2ccc(F)cc2)cc1)[C@@H]1C[C@@H](Cc2ccccc2)CN1C(=O)CSc1ccncc1 [Compound 96] = ≤ 300 nM
O=C(CSc1ccccc1)NC(COCc1ccccc1)C(=O)Nc1ccc(Oc2ccccc2)cc1 (stereo not drawn) [Compound 313] = 300 to 1000 nM
O=C(Nc1ccc(Oc2ccc(F)cc2)cc1)[C@@H]1C[C@@H](Cc2cccc(F)c2)CN1C(=O)Cn1cncn1 [Compound 51] = ≤ 300 nM
O=C(CN1CCOCC1)N[C@@H](COCc1ccc(F)cc1)C(=O)Nc1ccc(Oc2ccc(F)cc2)cc1 [Compound 210] = ≤ 300 nM
O=C(Cc1ccc(F)cc1F)NC(COCc1ccccc1)C(=O)Nc1ccc(Oc2ccccc2)cc1 (stereo not drawn) [Compound 363] = > 1000 nM
COCCN1CCN(CC(=O)N[C@@H](COCc2ccccc2)C(=O)Nc2ccc(Oc3ccc(F)cc3)cc2)CC1 [Compound 241] = 300 to 1000 nM
Cc1cncc(C(=O)NC(COCc2ccccc2)C(=O)Nc2ccc(Oc3ccccc3)cc2)c1 (stereo not drawn) [Compound 18] = > 1000 nM
CCN(CC)C1CCN(CC(=O)N[C@@H](COCc2ccccc2)C(=O)Nc2ccc(Oc3ccc(F)cc3)cc2)C1 (stereo partly drawn) [Compound 109] = > 1000 nM
CC(=O)NCCC[C@H](NC(=O)Cn1cncn1)C(=O)Nc1ccc(Oc2ccc(F)cc2)cc1 [Compound 254] = ≤ 300 nM
O=C(CN1CCN(c2ncccc2C(F)(F)F)CC1)N[C@@H](COCc1ccccc1)C(=O)Nc1ccc(Oc2ccc(F)cc2)cc1 [Compound 112] = > 1000 nM
O=C(Nc1ccc(Oc2ccc(F)cc2)cc1)[C@@H]1C[C@@H](Cc2ccccc2)CN1C(=O)CO [Compound 120] = ≤ 300 nM
